Reference for the values: patent US9687479B2

experiment: Trans-corneal permeability in vitro across excised rabbit corneas (Franz chamber); assay type: in vitro ADME; details: excised rabbit cornea, compound in PBS, 37° C., four hours
assay.readout: Papp at 4 h (×10⁻⁶ cm/s)
Enter your answer as a number in ×10⁻⁶ cm/s; do not include the unit.

Can you share its Papp at 4 h? I mean this molecule: COc1ccccc1C(=O)n1nc(-c2ccccn2)nc1NCc1ccc(Cl)s1
5.7

Can you share its Papp at 4 h? I mean this molecule: O=C(c1ccoc1)n1nc(-c2ccc[nH]c2=O)cc1NCc1ccc(Cl)s1
2.5

* * *

test: Pharmacokinetics in mice (i.v. and p.o.); assay type: in vivo, male CD-1 mice; conditions: mouse, plasma, po; male CD-1 mice, single p.o. dose 5 mg/kg, dose type A (5% dimethyl acetamide, tetraethylene glycol); read-out: p.o. t1/2 (converted)
assay.readout: half-life (h)
Enter your answer as a number in h; do not include the unit.

Can you share its half-life? I mean this compound: CC(C)(C)C(=O)n1nc(C2CCNCC2)c(F)c1NCc1ccc(Cl)s1
1

* * *

Provide the reported pIC50 of each item.
target: Human thrombin (Homo sapiens (Human), UniProt P00734); experiment: Thrombin protease activity inhibition assay (chromogenic substrate S-2238); assay type: biochemical; conditions: 3 nM thrombin, 125 μM S-2238, 10 min pre-incubation, RT
pIC50: −log10 of the molar value.

Can you share its pIC50? I mean this molecule: O=C(c1ccsc1)n1nc(-c2cccn(Cc3cccnc3)c2=O)cc1NCc1ccc(Cl)s1
< 4.00

Can you share its pIC50? I mean this molecule: COCCn1cccc(-c2cc(NCc3ccc(Cl)s3)n(C(=O)c3cccc4c3OCCO4)n2)c1=O
> 7.00

Can you share its pIC50? I mean this molecule: O=C(c1ccoc1)n1nc(-c2cccn(Cc3ncccn3)c2=O)cc1NCc1ccc(Cl)s1
> 7.00

Can you share its pIC50? I mean this molecule: O=C(c1ccsc1)n1nc(-c2ccc[nH]c2=O)cc1NCc1ccc(Cl)s1
> 7.00

* * *

Provide the reported pIC50 of each item.
biological target: Human KLKB1 (Homo sapiens (Human)); experiment: KLKB1 kallikrein activity inhibition assay (chromogenic substrate S-2302); format: biochemical; details: Table B
Sequence (P03952 391-638 limits assumed): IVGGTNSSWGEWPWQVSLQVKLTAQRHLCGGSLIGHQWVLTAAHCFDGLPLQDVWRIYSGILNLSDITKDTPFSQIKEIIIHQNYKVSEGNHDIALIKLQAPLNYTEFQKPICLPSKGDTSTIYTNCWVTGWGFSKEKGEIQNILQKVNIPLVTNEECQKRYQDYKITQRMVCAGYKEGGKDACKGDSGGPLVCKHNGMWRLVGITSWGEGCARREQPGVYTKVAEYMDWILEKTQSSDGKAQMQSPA
Sequence (P03952 20-390 partner limits assumed): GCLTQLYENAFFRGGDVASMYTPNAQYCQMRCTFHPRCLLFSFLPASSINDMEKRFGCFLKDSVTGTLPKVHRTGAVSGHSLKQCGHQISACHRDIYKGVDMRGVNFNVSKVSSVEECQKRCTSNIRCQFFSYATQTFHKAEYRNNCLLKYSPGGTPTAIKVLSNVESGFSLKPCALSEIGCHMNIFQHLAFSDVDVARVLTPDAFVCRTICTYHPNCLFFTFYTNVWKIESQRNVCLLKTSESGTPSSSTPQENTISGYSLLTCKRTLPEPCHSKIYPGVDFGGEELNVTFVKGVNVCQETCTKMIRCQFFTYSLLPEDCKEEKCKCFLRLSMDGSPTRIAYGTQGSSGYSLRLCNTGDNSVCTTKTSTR
pIC50: −log10 of the molar value.

Can you share its pIC50? I mean this compound: O=C(c1ccccc1Cl)n1nc(-c2cccn(Cc3ccco3)c2=O)cc1NCc1ccc(Cl)s1 [Cmpd 243]
6.00 to 7.00

Can you share its pIC50? I mean this compound: O=C(c1ccoc1)n1nc(-c2ccccc2)c(F)c1NCc1ccc(Cl)s1 [Cmpd 295]
< 4.00

Can you share its pIC50? I mean this compound: COCC(C)(C)C(=O)n1nc(-c2cccn(Cc3ccccn3)c2=O)cc1NCc1ccc(Cl)s1 [Cmpd 101]
4.00 to 5.00

Can you share its pIC50? I mean this compound: CC(C)(C)C(=O)n1nc(-c2cccn(Cc3ccco3)c2=O)cc1NCc1ccc(Cl)s1 [Cmpd 77]
< 4.00

Can you share its pIC50? I mean this compound: COCC(C)(C)C(=O)n1nc(-c2cccn(Cc3ccco3)c2=O)cc1NCc1ccc(Cl)s1 [Cmpd 98]
< 4.00

Can you share its pIC50? I mean this compound: O=C(c1ccco1)n1nc(-c2cccn(Cc3ccccc3)c2=O)cc1NCc1ccc(Cl)s1 [Cmpd 49]
6.00 to 7.00

Can you share its pIC50? I mean this compound: COc1ccccc1C(=O)n1nc(-c2ncccc2F)cc1NCc1ccc(Cl)s1 [Cmpd 290]
< 4.00

Can you share its pIC50? I mean this compound: COCC(C)(C)C(=O)n1nc(-c2cccn(Cc3ccsc3)c2=O)cc1NCc1ccc(Cl)s1 [Cmpd 106]
< 4.00
